Values compiled from patent US11174230B2.

Test system: HepG2
ASSAY COMMENT: MTT cytotoxicity assay, HepG2 liver cancer cells
Format: cell-based, human
CONDITION LABEL: after 48 h of drug treatment, average of three individual experiments
From the text: The (E)-4-(4-acrylamidophenoxy)-N-methylpicolinamide conjugates of general formulae 6a-6z and 7a-7aj have been evaluated for their cytotoxicity in selected human cancer cell lines i.e., lung (A549), prostate (DU-145), ovarian (SKOV3) and liver (HepG2) using MTT assay and the values obtained were compared to a standard drug sorafenib, with the concentration (treatment done at ranging from 10^−4 to 10^−8 M) of the compound produces to 50% inhibition of cell growth (IC50) as shown in Table 1. […]
Recorded IC50, one value per entry.
Answer with the figure and its unit, nothing else.

Check out these entries, answers already filled in.
COMPOUND	IC50
CNC(=O)c1cc(Oc2ccc(NC(=O)/C=C/c3cc(OC)ccc3OC)cc2)ccn1 [Compound 6e]	10.1 µM
CNC(=O)c1cc(Oc2ccc(NC(=O)/C=C/c3ccco3)cc2)ccn1 [Compound 7b]	10.2 µM
CNC(=O)c1cc(Oc2ccc(NC(=O)/C=C/c3ccc(Cl)cc3)cc2)ccn1 [Compound 6l]	9.6 µM

Data request: Find the recorded IC50 belonging to CNC(=O)c1cc(Oc2ccc(NC(=O)/C=C/c3cc(OC)c(OC)c(OC)c3)cc2)ccn1 [Compound 6d] and report it.
Data returned: 10.2 µM
